# System: Toledo Cells
# measurement.protocol: FACS-based phagocytosis assay, macrophages cocultured with Toledo cells
# Assay type: cell-based, Human
# particulars: Cpd 1 uM, T4J = 0, R = 0
attribute.measured: macrophage phagocytosis (untreated = 1.00)
Response field accepts a number only; no unit should be typed.

{"compound": "CC1(C)CCC(CN2CCN(c3ccc(C(=O)NS(=O)(=O)c4ccc(NCC5CCOCC5)c([N+](=O)[O-])c4)c(Oc4cnc5[nH]ccc5c4)c3)CC2)=C(c2ccc(Cl)cc2)C1", "recorded.number": 1.56}
{"compound": "Cn1c(CCCC(=O)O)nc2cc(N(CCCl)CCCl)ccc21", "recorded.number": 1.03}
{"compound": "Nc1ncn([C@@H]2O[C@H](CO)[C@@H](O)[C@H]2O)c(=O)n1", "recorded.number": 1.30}

Now for the compound whose macrophage phagocytosis (untreated = 1.00) we want.
I have this compound here, Nc1cccc2c1CN(C1CCC(=O)NC1=O)C2=O (stereo not shown) [Lenalidomide] , and I need its recorded macrophage phagocytosis (untreated = 1.00). 1.01
